target: T1, full-length recombinant human PAD4 (human, UniProt Q9UM07 1-663); test: ELISA, immobilized human PAD4
T1 construct: Full-length recombinant; also called peptidylarginine deiminase 4
T1 sequence (Q9UM07 whole entry): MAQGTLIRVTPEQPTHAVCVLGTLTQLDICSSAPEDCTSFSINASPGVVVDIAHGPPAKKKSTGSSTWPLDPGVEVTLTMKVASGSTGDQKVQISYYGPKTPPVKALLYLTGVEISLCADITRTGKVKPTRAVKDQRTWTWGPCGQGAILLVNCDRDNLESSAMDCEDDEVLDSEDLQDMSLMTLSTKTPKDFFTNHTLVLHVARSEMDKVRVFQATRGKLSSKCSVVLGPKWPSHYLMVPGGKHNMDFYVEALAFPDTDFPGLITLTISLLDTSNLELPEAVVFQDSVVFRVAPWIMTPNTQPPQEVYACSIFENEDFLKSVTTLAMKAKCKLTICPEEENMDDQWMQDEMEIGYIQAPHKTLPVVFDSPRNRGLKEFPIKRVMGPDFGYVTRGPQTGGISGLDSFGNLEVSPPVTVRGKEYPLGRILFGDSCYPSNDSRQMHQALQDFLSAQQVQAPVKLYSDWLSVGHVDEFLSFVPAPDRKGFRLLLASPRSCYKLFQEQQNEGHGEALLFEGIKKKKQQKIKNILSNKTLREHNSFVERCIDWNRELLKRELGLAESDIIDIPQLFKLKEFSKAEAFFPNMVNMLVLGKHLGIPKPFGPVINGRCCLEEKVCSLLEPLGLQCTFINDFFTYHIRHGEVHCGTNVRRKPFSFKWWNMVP
endpoint_name: O.D. 490/630 at 0.5 µg/mL

binder	O.D. 490/630 at 0.5 µg/mL
humanized anti-PAD4 antibody derived from H7, VH H4.32 / VL L4.17 (antibody, IgG1, V domains shown, IgG1 kappa; also called H7 H4.32/L4.17) VH: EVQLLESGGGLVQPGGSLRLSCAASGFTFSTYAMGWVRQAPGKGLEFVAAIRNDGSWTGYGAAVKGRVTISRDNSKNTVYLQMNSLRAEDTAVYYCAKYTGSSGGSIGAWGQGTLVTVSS VL: SYELTQPPSVSVSPGQTARITCSGGSGRYYYGWYQQKPGQAPVTVIYSSTHRPSGIPERFSGSTSGNTTTLTISGVQAEDEADYYCGTADSSSYVFGGGTKLTVLG	1.81

Next up:
-- ask I would be grateful if you could share the reported O.D. 490/630 at 0.5 µg/mL for humanized anti-PAD4 antibody derived from H7, VH H4.15 / VL L4.00 (antibody, IgG1, V domains shown, IgG1 kappa; also called H7 H4.15/L4.00) VH: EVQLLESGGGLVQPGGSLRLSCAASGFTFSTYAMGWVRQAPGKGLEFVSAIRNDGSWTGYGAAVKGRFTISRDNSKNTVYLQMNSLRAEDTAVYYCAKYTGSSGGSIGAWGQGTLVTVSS VL: SYELTQPPSVSVSPGQTARITCSGGSGRYYYGWYQQKPGQAPVLVIYSSTHRPSGIPERFSGSSSGTTVTLTISGVQAEDEADYYCGTADSSSYVFGGGTKLTVLG .
-- reply 1.88

Values were extracted from patent US20180044434A1.
